Each record here notes measured melting point.

Known results for molecules:
smilesRecord	assayResult
COc1cc(Nc2c(C#N)cnc3cc(-c4cncc(CN5CCOCC5)c4)ccc23)c(Cl)cc1Cl	141 to 143 °C
COc1cc(Nc2c(C#N)cnc3cc(-c4ccc(C=O)s4)ccc23)c(Cl)cc1Cl	> 300 °C (dec.)
COc1cc(Nc2c(C#N)cnc3cc(-c4cnc(C=O)n4C)ccc23)c(Cl)cc1Cl	186 to 189 °C

Summary for this molecule, Cn1ccnc1Sc1ccc(Nc2c(C#N)cnc3cc(-c4ccc(N5CCC(N6CCCC6)CC5)nc4)ccc23)cc1Cl : melting point is 230 °C (dec.)

Summary for this molecule, N#Cc1cnc2cc(C#CCCCN3CCOCC3)ccc2c1Nc1ccc(Cl)cc1Cl : melting point is 131 to 133 °C

Summary for this molecule, N#Cc1cnc2cc(-c3ccc(CCN4CCOCC4)s3)ccc2c1Nc1ccc(Cl)cc1Cl : melting point is 168 to 169 °C

Summary for this molecule, COc1cc(Nc2c(C#N)cnc3cc(-c4ccc(CNCCS(=O)(=O)c5ccccc5)cc4)ccc23)c(Cl)cc1Cl : melting point is 198 to 201 °C

Summary for this molecule, COc1cc(Nc2c(C#N)cnc3cc(-c4ncccc4CN4CCOCC4)ccc23)c(Cl)cc1Cl : melting point is 151 to 154 °C

Summary for this molecule, COc1cc(Nc2c(C#N)cnc3cc(-c4ccc(Cn5ccnn5)cc4)ccc23)c(Cl)cc1Cl : melting point is 239 to 240 °C

Summary for this molecule, COc1cc(Nc2c(C#N)cnc3cc(-c4ccc(N5CCOCC5)cc4)ccc23)c(Cl)cc1Cl : melting point is 235 to 237 °C

Summary for this molecule, COC(=O)C1CCN(Cc2ccc(-c3ccc4c(Nc5ccc(Sc6nccn6C)c(Cl)c5)c(C#N)cnc4c3)nc2)CC1 : melting point is 135 to 137 °C

###

- measuredTarget: Rat2 fibroblasts stably transformed with v-Src/Hu c-Src fusion gene (Homo sapiens, UniProt P12931, cells depend on it, form not given)
- Sequence (P12931 whole entry, change not shown, the tested form may be a part): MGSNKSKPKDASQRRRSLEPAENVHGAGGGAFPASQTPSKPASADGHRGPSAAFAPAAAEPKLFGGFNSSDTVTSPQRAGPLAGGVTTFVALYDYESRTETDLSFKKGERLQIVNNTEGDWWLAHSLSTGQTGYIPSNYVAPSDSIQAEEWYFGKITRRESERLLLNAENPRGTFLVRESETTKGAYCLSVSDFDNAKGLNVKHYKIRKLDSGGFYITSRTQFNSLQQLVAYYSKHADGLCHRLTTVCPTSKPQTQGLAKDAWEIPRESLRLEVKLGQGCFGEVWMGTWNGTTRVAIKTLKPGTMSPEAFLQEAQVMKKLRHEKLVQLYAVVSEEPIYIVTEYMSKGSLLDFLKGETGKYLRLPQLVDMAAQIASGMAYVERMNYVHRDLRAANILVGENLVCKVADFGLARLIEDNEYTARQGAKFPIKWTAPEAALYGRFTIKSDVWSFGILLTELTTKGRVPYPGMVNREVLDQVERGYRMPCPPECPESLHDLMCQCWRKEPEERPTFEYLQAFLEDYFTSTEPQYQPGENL
- testMethodNotes: Anchorage Independent Src-transformed Fibroblast Proliferation Assay
- Type: cell-based, Rat
- assaySetup: suspension growth, MTS reagent on Day 5; read-out: anch-indep src-tx fib IC50
Each record here notes measured GI50.
Entry rule: numbers only, all in nM.

Known results for compounds:
smilesRecord	assayResult
CCN1CCN(Cc2cc(-c3ccc4c(Nc5ccc(Cl)cc5Cl)c(C#N)cnc4c3)cs2)CC1	900
COc1cc(Nc2c(C#N)cnc3cc(-c4ccc(CNCCc5ccccn5)cc4)ccc23)c(Cl)cc1Cl	450

Summary for this compound, COc1cc(Nc2c(C#N)cnc3cc(-c4ccc(CNCCS(C)(=O)=O)o4)ccc23)c(Cl)cc1Cl : GI50 is 420

Summary for this compound, COc1cc(Nc2c(C#N)cnc3cc(-c4csc(CN5CCOCC5)c4)ccc23)c(C)cc1Cl : GI50 is 900

Summary for this compound, COc1cc(Nc2c(C#N)cnc3cc(C#CCN4CCOCC4)ccc23)c(Cl)cc1Cl : GI50 is 6500

Summary for this compound, COc1cc(Nc2c(C#N)cnc3cc(-c4cnc(CN5CCOCC5)n4C)c(OC)cc23)c(Cl)cc1Cl : GI50 is 3500

Summary for this compound, COc1ccc(Cl)c(Nc2c(C#N)cnc3cc(-c4csc(CN5CCOCC5)c4)ccc23)c1 : GI50 is 90
